Field: MIAPaCa 2/CA9+ IC50. Provide a value for each of the binders that follow.
Target: Carboanhydrase IX (Homo sapiens, UniProt Q16790 38-459)
Assay: cell-based or functional assay
Please respond with the number in nM and leave the unit unwritten.

GET /value?item= Example 320 (antibody, human IgG1, kappa, V domains shown, linker-toxophore on cysteine S) VH: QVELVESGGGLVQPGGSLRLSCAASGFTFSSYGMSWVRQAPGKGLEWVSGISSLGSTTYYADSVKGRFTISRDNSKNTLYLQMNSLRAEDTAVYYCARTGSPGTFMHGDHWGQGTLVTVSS VL: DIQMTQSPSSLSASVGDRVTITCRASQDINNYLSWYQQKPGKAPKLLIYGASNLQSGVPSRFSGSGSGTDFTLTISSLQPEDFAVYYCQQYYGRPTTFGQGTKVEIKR &field=MIAPaCa 2/CA9+ IC50 returns 19

GET /value?item= Example 286 (antibody, human IgG1, kappa, V domains shown, linker-toxophore on cysteine S) VH: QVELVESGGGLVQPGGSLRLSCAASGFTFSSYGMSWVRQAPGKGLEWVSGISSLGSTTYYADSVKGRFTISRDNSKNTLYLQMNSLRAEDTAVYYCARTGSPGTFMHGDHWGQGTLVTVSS VL: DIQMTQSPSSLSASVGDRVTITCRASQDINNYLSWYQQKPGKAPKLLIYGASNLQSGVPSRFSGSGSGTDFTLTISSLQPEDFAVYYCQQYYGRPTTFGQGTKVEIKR &field=MIAPaCa 2/CA9+ IC50 returns 0.8
